// pKi lookup, one value per entry
- protocolDescription: Inhibition of HCV NS3/4A serine protease by continuous spectrophotometric assay
- Parameters: species or system Hepacivirus hominis
Please treat pKi as minus the base-10 logarithm of the molar concentration.

Please review the entries below; each comes with its answer.
Exercise: Quick one: pKi of CC(C)(C)NC(=O)N[C@H](C(=O)N1C[C@H]2[C@@H]([C@H]1C(=O)NC(CC1CCC1)C(=O)C(N)=O)C2(C)C)C(C)(C)C (stereo partly specified) ?
Solution: 7.85

Exercise: Which pKi reading was recorded for the molecule CC(C)(C)NC(=O)N[C@H](C(=O)N1CC2(C[C@H]1C(=O)NC(CC1CCC1)C(=O)C(N)=O)SCCS2)C1CCCCC1 (stereo partly specified) ?
Solution: 6.40

Exercise: Given CC(C)(C)NC(=O)N[C@H](C(=O)N1CC2(C[C@H]1C(=O)NC(CC1CCC1)C(=O)C(N)=O)SCCS2)C(C)(C)C (stereo partly specified) , state its recorded pKi.
Solution: 6.22

Exercise: I am curious: what pKi value has been reported for C=CCNC(=O)C(=O)C(CC1CC1)NC(=O)[C@@H]1CC2(CN1C(=O)[C@@H](NC(=O)NC1(CS(=O)(=O)C(C)(C)C)CCCCC1)C(C)(C)C)SCCCS2 (stereo partly specified) ?
Solution: 7.74

Exercise: What does the data say about its pKi? Entry: C=CCNC(=O)C(=O)C(CC1CC1)NC(=O)[C@@H]1CC2(CN1C(=O)[C@@H](NC(=O)N[C@@H](C(=O)OC1CC1)C(C)C)C(C)(C)C)SCCS2 (stereo partly specified)
Solution: 7.08

Continue with the molecule presented below.
Exercise: # get_value(readout='pKi', item= C=CCNC(=O)C(=O)C(CCCC)NC(=O)[C@@H]1CC2(CN1C(=O)[C@@H](NC(=O)N[C@@H](CN1C(=O)CC(C)(C)CC1=O)C(C)(C)C)C(C)(C)C)SCCS2 (stereo partly specified) )
Solution: 7.89

----------
Known Ratio of a selection of compounds
- protocolDescription: Selectivity for HCV NS3 serine protease over human neutrophil elastase
Keep the answer to the number alone.

Exercise: Suppose we examine the compound C=CCNC(=O)C(=O)C(CC1CC1)NC(=O)[C@@H]1CC2(CN1C(=O)[C@@H](NC(=O)N[C@@H](C(=O)OC1CC1)C(C)C)C1CCCCC1)SCCS2 (stereo not given in full) ; what Ratio value has been reported?
Solution: 15

Exercise: Please give the measured Ratio for this compound: C=CCNC(=O)C(=O)C(CCC)NC(=O)[C@@H]1CC2(CN1C(=O)[C@@H](NC(=O)N[C@@H](CN1C(=O)CC(C)(C)CC1=O)C(C)(C)C)C1(C)CCCCC1)SCCS2 (stereo not given in full)
Solution: 240

Exercise: Consider the compound C=CCNC(=O)C(=O)C(CCC)NC(=O)[C@@H]1CC2(CN1C(=O)[C@@H](NC(=O)N[C@@H](CN1C(=O)CC(C)(C)CC1=O)C(C)(C)C)C(C)(C)C)SCCS2 (stereo not given in full) and give its measured Ratio.
Solution: 630

Exercise: Ratio for C=CCNC(=O)C(=O)C(CC1CC1)NC(=O)[C@@H]1CC2(CN1C(=O)[C@@H](NC(=O)NC1(CS(=O)(=O)C(C)(C)C)CCCCC1)C(C)(C)C)SCCS2 (stereo not given in full) ?
Solution: 40

// next item, Ratio requested
Exercise: Entry C=CCNC(=O)C(=O)C(CCC)NC(=O)[C@@H]1CC2(CN1C(=O)[C@@H](NC(=O)NC1(CS(=O)(=O)C(C)(C)C)CCCCC1)C1(C)CCCCC1)SCCS2 (stereo not given in full) has what Ratio?
Solution: 10
